Source: patent US4992449A

Hi there, I'd appreciate the recorded MIC for every entry that follows.
system: Moranella morganii CMC 84-38
Give bare numbers, in µg/mL.

Examples from the recorded data:
N[C@H]1CCC[C@H]1Nc1cc2c(cc1F)c(=O)c(C(=O)O)cn2C1CC1 (relative stereo) [Example 2] ... 1
N[C@H]1CCC[C@H]1Nc1cc2c(cc1F)c(=O)c(C(=O)O)cn2-c1ccc(F)cc1 (relative stereo) [Example 3] ... 8
CCn1cc(C(=O)O)c(=O)c2cc(F)c(N[C@@H]3CCC[C@@H]3N)cc21 (relative stereo) [Example 4] ... 1

Can you share its MIC? I mean this compound: N[C@H]1CCCC[C@H]1Nc1cc2c(cc1F)c(=O)c(C(=O)O)cn2C1CC1 (relative stereo) [Example 1] 1

----------
Hi there, I'd appreciate the recorded MIC for every entry that follows.
system: Escherichia coli ATCC 25922; assay: In vitro antibacterial MIC, agar plate dilution; format: cell-based; settings: Escherichia coli, ATCC25922, 18 h, Table II; Excherichia coli ATCC 25922; read-out: MIC
Remember to put the unit after the number in your answer.

Examples from the recorded data:
N[C@H]1CCC[C@H]1Nc1cc2c(cc1F)c(=O)c(C(=O)O)cn2-c1ccc(F)cc1 (relative stereo) ... 1 µg/mL
CCn1cc(C(=O)O)c(=O)c2cc(F)c(N[C@@H]3CCCC[C@@H]3NC)cc21 (relative stereo) ... 8 µg/mL
CCn1cc(C(=O)O)c(=O)c2cc(F)c(N[C@@H]3CCCC[C@H]3N)cc21 (relative stereo) [Example 8] ... 32 µg/mL

Can you share its MIC? I mean this molecule: CCn1cc(C(=O)O)c(=O)c2cc(F)c(N[C@@H]3CCC[C@@H]3N)cc21 (relative stereo) 2 µg/mL

----------
Hi there, I'd appreciate the recorded MIC for every entry that follows.
system: Staphylococcus aureus K 82-26
One number for each entry, in µg/mL.

Examples from the recorded data:
N[C@H]1CCC[C@H]1Nc1cc2c(cc1F)c(=O)c(C(=O)O)cn2-c1ccc(F)cc1 (relative stereo) ... 4
N[C@H]1CCC[C@H]1Nc1cc2c(cc1F)c(=O)c(C(=O)O)cn2C1CC1 (relative stereo) ... 4
N[C@H]1CCCC[C@H]1Nc1cc2c(cc1F)c(=O)c(C(=O)O)cn2C1CC1 (relative stereo) ... 2

Then there is this compound:
Query MIC on Staphylococcus aureus K 82-26 for CCn1cc(C(=O)O)c(=O)c2cc(F)c(N[C@@H]3CCC[C@@H]3N)cc21 (relative stereo) 1

----------
system: Excherichia coli LL 311; experiment: In vitro antibacterial MIC, agar plate dilution; format: cell-based; details: 18 h, Table II, read-out: MIC
observed.property: MIC (µg/mL)
Give bare numbers, in µg/mL.

Examples from the recorded data:
CCn1cc(C(=O)O)c(=O)c2cc(F)c(N[C@@H]3CCCC[C@@H]3N)cc21 (relative stereo) [Example 6] ... 0.5
CCn1cc(C(=O)O)c(=O)c2cc(F)c(N[C@@H]3CCCC[C@@H]3NC)cc21 (relative stereo) [Example 10] ... 4

Then there is this compound:
Can you share its MIC? I mean this compound: CCn1cc(C(=O)O)c(=O)c2cc(F)c(N[C@@H]3CCCC[C@H]3N)cc21 (racemic) [Example 7] 32

----------
Measurement record for Escherichia coli CMC 84-50; quantity recorded: MIC.

Examples from the recorded data:
CCn1cc(C(=O)O)c(=O)c2cc(F)c(N[C@@H]3CCC[C@@H]3N)cc21 (relative stereo) ... 2 µg/mL
N[C@H]1CCCC[C@H]1Nc1cc2c(cc1F)c(=O)c(C(=O)O)cn2C1CC1 (relative stereo) ... 1 µg/mL
N[C@H]1CCC[C@H]1Nc1cc2c(cc1F)c(=O)c(C(=O)O)cn2-c1ccc(F)cc1 (relative stereo) ... 4 µg/mL

Then there is this compound:
Can you share its MIC? I mean this compound: N[C@H]1CCC[C@H]1Nc1cc2c(cc1F)c(=O)c(C(=O)O)cn2C1CC1 (relative stereo) 0.5 µg/mL

----------
Measurement record for Staphylococcus faecalis CMC 83-120; quantity recorded: MIC.
Answers are plain numbers, in µg/mL.

CCn1cc(C(=O)O)c(=O)c2cc(F)c(N[C@@H]3CCC[C@@H]3N)cc21 (relative stereo) [Example 4] ... 4

Can you share its MIC? I mean this compound: N[C@H]1CCCC[C@H]1Nc1cc2c(cc1F)c(=O)c(C(=O)O)cn2C1CC1 (relative stereo) [Example 1] 4

----------
Measurement record for Klebsiella neumoniae IO 83-5; quantity recorded: MIC.
One number for each entry, in µg/mL.

CCn1cc(C(=O)O)c(=O)c2cc(F)c(N[C@@H]3CCC[C@@H]3N)cc21 (relative stereo) ... 2

I would be grateful if you could provide MIC for each of the following entries.
1. N[C@H]1CCCC[C@H]1Nc1cc2c(cc1F)c(=O)c(C(=O)O)cn2C1CC1 (relative stereo)
2. N[C@H]1CCC[C@H]1Nc1cc2c(cc1F)c(=O)c(C(=O)O)cn2-c1ccc(F)cc1 (relative stereo)

1
4

Can you share its MIC? I mean this compound: N[C@H]1CCC[C@H]1Nc1cc2c(cc1F)c(=O)c(C(=O)O)cn2C1CC1 (relative stereo) 2

----------
tested on: Citrobacter diversus K 82-24; assay: In vitro antibacterial MIC, agar plate dilution; format: cell-based; details: Citrobacter koseri, K8224, Mueller-Hinton agar, 10^4 CFU, 18 hours, 35° C.
Hi there, I'd appreciate the recorded MIC for every entry that follows.
Answers are plain numbers, in µg/mL.

N[C@H]1CCC[C@H]1Nc1cc2c(cc1F)c(=O)c(C(=O)O)cn2-c1ccc(F)cc1 (relative stereo) [Example 3] ... 2

I would be grateful if you could provide MIC for each of the following entries.
1. N[C@H]1CCCC[C@H]1Nc1cc2c(cc1F)c(=O)c(C(=O)O)cn2C1CC1 (relative stereo) [Example 1]
2. N[C@H]1CCC[C@H]1Nc1cc2c(cc1F)c(=O)c(C(=O)O)cn2C1CC1 (relative stereo) [Example 2]
3. CCn1cc(C(=O)O)c(=O)c2cc(F)c(N[C@@H]3CCC[C@@H]3N)cc21 (relative stereo) [Example 4]

[0.25, 0.5, 0.5]

----------
Measurement record for Escherichia coli MOR 84-20; quantity recorded: MIC.
Remember to put the unit after the number in your answer.

Examples from the recorded data:
N[C@H]1CCCC[C@H]1Nc1cc2c(cc1F)c(=O)c(C(=O)O)cn2C1CC1 (relative stereo) ... 0.25 µg/mL
N[C@H]1CCC[C@H]1Nc1cc2c(cc1F)c(=O)c(C(=O)O)cn2-c1ccc(F)cc1 (relative stereo) ... 2 µg/mL
CCn1cc(C(=O)O)c(=O)c2cc(F)c(N[C@@H]3CCC[C@@H]3N)cc21 (relative stereo) ... 1 µg/mL

Then there is this compound:
Can you share its MIC? I mean this compound: N[C@H]1CCC[C@H]1Nc1cc2c(cc1F)c(=O)c(C(=O)O)cn2C1CC1 (relative stereo) 0.5 µg/mL

----------
Hi there, I'd appreciate the recorded MIC for every entry that follows.
test system: Escherichia coli ATCC 25922; assay: In vitro antibacterial MIC, agar plate dilution; assay type: cell-based; settings: Escherichia coli, ATCC25922, 18 h, Table II; Excherichia coli ATCC 25922; read-out: MIC
One number for each entry, in µg/mL.

CCn1cc(C(=O)O)c(=O)c2cc(F)c(N[C@@H]3CCCC[C@H]3N)cc21 (racemic) [Example 7] ... 32
CCn1cc(C(=O)O)c(=O)c2cc(F)c(N[C@@H]3CCCC[C@@H]3N)cc21 (relative stereo) [Example 6] ... 0.5

Then there is this compound:
Query MIC on Escherichia coli ATCC 25922 for CCn1cc(C(=O)O)c(=O)c2cc(F)c(N[C@@H]3CCCC[C@@H]3O)cc21 (relative stereo) [Example 5] 32

----------
Measurement record for Enterobacter cloacae MOR 84-30; quantity recorded: MIC.
Remember to put the unit after the number in your answer.

Examples from the recorded data:
N[C@H]1CCC[C@H]1Nc1cc2c(cc1F)c(=O)c(C(=O)O)cn2C1CC1 (relative stereo) ... 2 µg/mL
CCn1cc(C(=O)O)c(=O)c2cc(F)c(N[C@@H]3CCC[C@@H]3N)cc21 (relative stereo) ... 4 µg/mL
N[C@H]1CCCC[C@H]1Nc1cc2c(cc1F)c(=O)c(C(=O)O)cn2C1CC1 (relative stereo) ... 1 µg/mL

Then there is this compound:
Can you share its MIC? I mean this compound: N[C@H]1CCC[C@H]1Nc1cc2c(cc1F)c(=O)c(C(=O)O)cn2-c1ccc(F)cc1 (relative stereo) 8 µg/mL

----------
tested on: Proteus rettgeri IO 83-21
observed.property: MIC (µg/mL)
Give bare numbers, in µg/mL.

Examples from the recorded data:
N[C@H]1CCCC[C@H]1Nc1cc2c(cc1F)c(=O)c(C(=O)O)cn2C1CC1 (relative stereo) ... 2
N[C@H]1CCC[C@H]1Nc1cc2c(cc1F)c(=O)c(C(=O)O)cn2C1CC1 (relative stereo) ... 4
CCn1cc(C(=O)O)c(=O)c2cc(F)c(N[C@@H]3CCC[C@@H]3N)cc21 (relative stereo) ... 2

Then there is this molecule:
Can you share its MIC? I mean this molecule: N[C@H]1CCC[C@H]1Nc1cc2c(cc1F)c(=O)c(C(=O)O)cn2-c1ccc(F)cc1 (relative stereo) 4
